assay procedure: Cmax in rat at 10 mg/kg, po
Type: ADME, organism-based
Parameters: dose 10 mg/kg, route oral
test conditions: in vivo
Numbered stars: 1 amine (or outer) side, 2 acyl side, 3 side chain; on linkers, the order of the positions; unused ones are H or OH. Square brackets hold non-standard residues; d marks the D form. Peptide text beside a SMILES is read from it. * marks the point of attachment. Pro(3R,4S-CMe2) = CC1(C)[C@@H]2[C@@H](C(=O)O)NC[C@@H]21; X1 = O=C(C(=O)[*:2])C(CC1CC1)N[*:1]; Phg = N[C@H](C(=O)O)c1ccccc1; Tle = CC(C)(C)[C@H](N)C(=O)O; Boc = CC(C)(C)OC(=O)*
result type: Cmax (nM)
Could you give me the number in nM? Just the number is fine.

For record CN(C)C(=O)[C@@H](NC(=O)CNC(=O)C(=O)C(CC1CC1)NC(=O)[C@@H]1[C@@H]2[C@H](CN1C(=O)[C@@H](NC(=O)OC(C)(C)C)C(C)(C)C)C2(C)C)c1ccccc1 (stereo partly drawn) (Boc-[Tle][Pro(3R,4S-CMe2)][X1]G[Phg]-NMe2) the listed Cmax is 120

* * *

assay procedure: AUC in monkey at 3 mg/kg, po
Assay type: ADME, organism-based, Macaca mulatta
Design: dose 3 mg/kg, route oral
test conditions: rhesus monkey, plasma
Numbered stars: 1 amine (or outer) side, 2 acyl side, 3 side chain; on linkers, the order of the positions; unused ones are H or OH. Square brackets hold non-standard residues; d marks the D form. Peptide text beside a SMILES is read from it. * marks the point of attachment. Pro(3R,4S-CMe2) = CC1(C)[C@@H]2[C@@H](C(=O)O)NC[C@@H]21; X1 = O=C(C(=O)[*:2])C(CC1CC1)N[*:1]; Phg = N[C@H](C(=O)O)c1ccccc1; Tle = CC(C)(C)[C@H](N)C(=O)O; Boc = CC(C)(C)OC(=O)*
result type: AUC (µM·h)
State the answer as a number, implicitly in µM·h.

The compound identified as CN(C)C(=O)[C@@H](NC(=O)CNC(=O)C(=O)C(CC1CC1)NC(=O)[C@@H]1[C@@H]2[C@H](CN1C(=O)[C@@H](NC(=O)OC(C)(C)C)C(C)(C)C)C2(C)C)c1ccccc1 (stereo partly drawn) (Boc-[Tle][Pro(3R,4S-CMe2)][X1]G[Phg]-NMe2) registered its AUC at 0.03

* * *

assay procedure: Oral bioavailability in monkey at 1 mg/kg, sc
Type: ADME, organism-based, Macaca mulatta
test conditions: rhesus monkey, in vivo, subcutaneous
Numbered stars: 1 amine (or outer) side, 2 acyl side, 3 side chain; on linkers, the order of the positions; unused ones are H or OH. Square brackets hold non-standard residues; d marks the D form. Peptide text beside a SMILES is read from it. * marks the point of attachment. Pro(3R,4S-CMe2) = CC1(C)[C@@H]2[C@@H](C(=O)O)NC[C@@H]21; X1 = O=C(C(=O)[*:2])C(CC1CC1)N[*:1]; Phg = N[C@H](C(=O)O)c1ccccc1; Tle = CC(C)(C)[C@H](N)C(=O)O; Boc = CC(C)(C)OC(=O)*
result type: bioavailability
Please state the number and follow it with the unit.

# bioavailability of CN(C)C(=O)[C@@H](NC(=O)CNC(=O)C(=O)C(CC1CC1)NC(=O)[C@@H]1[C@@H]2[C@H](CN1C(=O)[C@@H](NC(=O)OC(C)(C)C)C(C)(C)C)C2(C)C)c1ccccc1 (stereo partly drawn) (Boc-[Tle][Pro(3R,4S-CMe2)][X1]G[Phg]-NMe2) = 100%
